system: NCI-H226 lung; test: NCI-60 one-dose screen, 48 h (100 = growth as untreated, 0 = no growth, -100 = all killed); details: 10 µM
The panel holds about 83,000 compounds, 20% with a hit somewhere; the sample as a whole holds those more often.
quantity_kind: growth (%)

molecule	scale_unit	endpoint_result
COc1ccc2nc3cc(Cl)ccc3c(N)c2c1	%	36.7
Cc1c2c[n+](C(C)C)ccc2c(C)c2c1[nH]c1ccccc12	%	27.4
COc1cc2cc(Oc3ccc(NC(=O)c4cccc(C(F)(F)F)c4)cc3)c(C)nc2cc1OC	%	48.1
CCOC(=O)c1cc(C(=O)c2cc(OC)cc(OC)c2)n2nc(C)ccc12	%	78.6
Nc1nccc(OCCO)n1	%	96.1
CC(C)(C)c1ccc(S(=O)(=O)N[C@H]2CC[C@H]3[C@@H]4CCc5cc(O)c([N+](=O)[O-])cc5[C@H]4CC[C@]23C)cc1	%	80
CO[C@H]1CC(O[C@@H]2/C(C)=C/C[C@@H]3C[C@@H](C[C@]4(C=C[C@H](C)[C@@H](C5CCCCC5)O4)O3)OC(=O)[C@@H]3C=C(C)[C@@H](O)[C@H]4OC/C(=C\C=C\[C@@H]2C)[C@]43O)O[C@@H](C)C1O[C@H]1C[C@H](OC)[C@@H](O)[C@H](C)O1 (stereo partly drawn)	%	-85.8
CCOc1ccccc1/C=N/N1CCCCCC1	%	88.2

---

test system: DU-145 prostate; experiment: NCI-60 one-dose screen, 48 h (100 = growth as untreated, 0 = no growth, -100 = all killed); conditions: 10 µM
The panel holds about 83,000 compounds, 20% with a hit somewhere; the sample as a whole holds those more often.
quantity_kind: growth (%)

> print(dat)
                                   compound  quantity.kind  scale.unit  endpoint.result
1  Cc1nc2n(c(=O)c1CCN1CCC(c3noc4cc(F)ccc34)CC1)CCC[C@@H]2O         growth           %              105
2  COc1ccc(/C=C2\CCCC3=C2NC(N)=NC3c2ccc(OC)c(OC)c2)cc1OC (stereo not drawn)         growth           %             76.7
3       CCCCCCCCCCCC[n+]1c(C)cc(N)c2ccccc21         growth           %             24.2
4  O=C1/C(=C/c2ccc3c(c2)OCO3)SC(=S)N1C1c2ccccc2Oc2ccccc21         growth           %             99.7
5  O=C(COc1cccc(/C=C2\CSc3ccccc3C2=O)c1)c1ccc(Cl)cc1         growth           %             94.9
6         CCN(CC)CC(=O)N(CC)c1ccc(C)c(Cl)c1         growth           %              103
7  COC1=CC(=O)OC(c2ccc(OC)cc2)C1 (stereo not drawn)         growth           %              113
8  C[C@]12CCC3c4ccc(O)cc4C[C@@H](CCCCCCCCCS(=O)CCCC(F)(F)C(F)(F)F)C3C1CC[C@@H]2O (stereo partly drawn)         growth           %              103
